- systemUnderTest: T1, Oct6 DNA-binding domain (BD-Oct6) (Mus musculus (B6), UniProt P21952 317-416)
- T1 sequence: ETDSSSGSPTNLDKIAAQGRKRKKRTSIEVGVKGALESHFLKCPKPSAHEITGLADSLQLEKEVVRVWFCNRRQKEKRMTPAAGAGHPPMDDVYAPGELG
- testMethodNotes: EMSA; 10% glycerol, 20 mM HEPES pH 7.8, 45 mM KCl, 10 mM NaCl, 1 mM EDTA, 1 mM DTT, 0.2 ug/uL BSA, 0.1% NP-40, 50 ng poly-dIdC; 20 ng each GST protein; room temperature 30 min (heterodimers 4 C); 6% PAGE 0.25x TBE
- details: protein: recombinant; tags: GST (N-terminal, pGEX-6P-1); label: 32P-dCTP fill-in of the 5' (dG)5 overhangs of both strands (Methods; control probes are given with GGG)
measuredQuantity: binding result

binder	measuredQuantity	result
14 (dsDNA) DNA 1: GGGGGGTCAGGATTTTGTGTGTGGATTAACTGTATCATCCCCC DNA 2: GGGGGATGATACAGTTAATCCACACACAAAATCCTGACCCCCC	binding result	no binding
63 (dsDNA) DNA 1: GGGGGAGAAATCCTCAATTTCCTTATCCACAAAATGGACATTTTCCTAGTACCTCCCCC DNA 2: GGGGGAGGTACTAGGAAAATGTCCATTTTGTGGATAAGGAAATTGAGGATTTCTCCCCC	binding result	binds
52 (dsDNA) DNA 1: GGGGGGGGGCAGCACAAATATTTCTGTGAATGTACCCCC DNA 2: GGGGGTACATTCACAGAAATATTTGTGCTGCCCCCCCCC	binding result	no binding
66 (dsDNA) DNA 1: GGGGGGGAACTCCCTTAAATTTGGTTTGTTTATGTGTCCCCC DNA 2: GGGGGACACATAAACAAACCAAATTTAAGGGAGTTCCCCCCC	binding result	binds
127 (dsDNA) DNA 1: GGGGGTTTTGTTTTTTGTTTAAAGCAATAACATATTCAGCCCCC DNA 2: GGGGGCTGAATATGTTATTGCTTTAAACAAAAAACAAAACCCCC	binding result	binds
102a (dsDNA) DNA 1: GGGGGGGATCCCCACAATACAAAAAAAACAAAAACAAAACCCCCC DNA 2: GGGGGGTTTTGTTTTTGTTTTTTTTGTATTGTGGGGATCCCCCCC	binding result	no binding
25 (dsDNA) DNA 1: GGGGGCAGATAACTTTGTCCTTTTTGATTTTGAGTGAAGACCCCC DNA 2: GGGGGTCTTCACTCAAAATCAAAAAGGACAAAGTTATCTGCCCCC	binding result	no binding
67 (dsDNA) DNA 1: GGGGGGCATATGCATTGTCTGTGTATTCTAAATGTATCCCCC DNA 2: GGGGGATACATTTAGAATACACAGACAATGCATATGCCCCCC	binding result	no binding

Let us move to another entry and its binding result.
Ask: Look up and report measured binding result for this entry: 86 (dsDNA) DNA 1: GGGGGAGTTTAGTTTGTAGAGTACTTACCTAGCAGCACAAAGCCCTGCCCCC DNA 2: GGGGGCAGGGCTTTGTGCTGCTAGGTAAGTACTCTACAAACTAAACTCCCCC
Reply: no binding
